test system: androgen receptor (AR) in LNCaP and/or VCaP cells; assay: Androgen Receptor ELISA assay (AR degradation); assay type: cell-based; conditions: LNCaP and/or VCaP cells; 5 hours incubation; media with R1881; read-out: DC50 Code* (degradation of AR ELISA)
MEASUREMENT NAME: DC50

Some molecules with known DC50 results, for comparison:
MOLECULE	MEASUREMENT NAME	VALUE
COc1cc(O[C@H]2CC[C@H](NC(=O)c3cnc(N4CC(CN(C(C)C)[C@H]5CC[C@H](Oc6ccc7c(c6)C(=O)N(C6CCC(=O)NC6=O)C7=O)CC5)C4)cn3)CC2)ccc1C#N (stereo partly drawn)	DC50	< 1 nM
COc1cc(O[C@H]2CC[C@H](NC(=O)c3cnc(N4CCC(CN(C)[C@H]5C[C@H](Oc6ccc7c(c6)C(=O)N(C6CCC(=O)NC6=O)C7=O)C5)CC4)cn3)CC2)ccc1C#N (stereo partly drawn)	DC50	< 1 nM
CC(C)N(CC1CCN(c2cnc(C(=O)N[C@H]3CC[C@H](Oc4ccc(C#N)c(Cl)c4)CC3)cn2)CC1)[C@H]1C[C@H](Oc2ccc3c(c2)C2(CC2)N(C2CCC(=O)NC2=O)C3=O)C1 (stereo partly drawn)	DC50	< 1 nM

Dear colleague, I am looking for the recorded DC50 of the following molecule: COc1cc(O[C@H]2CC[C@H](NC(=O)c3cnc(N4CC5(CC(CN(C(C)C)[C@H]6C[C@H](Oc7ccc8c(c7)C(=O)N(C7CCC(=O)NC7=O)C8=O)C6)C5)C4)cn3)CC2)ccc1C#N (stereo partly drawn)
< 1 nM

Dear colleague, I am looking for the recorded DC50 of the following molecule: CC(C)N(CC1CN(c2cnc(C(=O)N[C@H]3CC[C@H](Oc4ccc(C#N)c(Cl)c4)CC3)cn2)C1)[C@H]1C[C@H](Oc2ccc3c(c2)C(=O)N(C2CCC(=O)NC2=O)C3=O)C1 (stereo partly drawn)
< 1 nM

Dear colleague, I am looking for the recorded DC50 of the following molecule: COc1cc(O[C@H]2C[C@H](N(CC3CCN(c4ncc(C(=O)NC5CC6CC(Oc7cc(C)c(C#N)c(C)c7)CC6C5)cn4)CC3)C(C)C)C2)cc2c1C(=O)N(C1CCC(=O)NC1=O)C2=O (stereo partly drawn)
> 100 nM

Dear colleague, I am looking for the recorded DC50 of the following molecule: COc1cc(O[C@H]2CC[C@H](NC(=O)c3cnc(N4CCC(CN(C(C)C)[C@H]5CC[C@H](Oc6ccc7c(c6)C(=O)N(C6CCC(=O)NC6=O)C7=O)CC5)CC4)cn3)CC2)ccc1C#N (stereo partly drawn)
< 1 nM

Dear colleague, I am looking for the recorded DC50 of the following molecule: COc1cc(O[C@H]2C[C@H](N(CC3CCN(c4ncc(C(=O)N[C@@H]5CC[C@@H](Oc6cc(C)c(C#N)c(C)c6)C5)cn4)CC3)C(C)C)C2)cc2c1C(=O)N(C1CCC(=O)NC1=O)C2=O (stereo partly drawn)
> 100 nM

Dear colleague, I am looking for the recorded DC50 of the following molecule: CC(C)N(CC1CCN(c2ncc(C(=O)N[C@H]3CC[C@H](Oc4ccc(C#N)c(Cl)c4)CC3)cn2)CC1)[C@H]1C[C@H](Oc2ccc3c(c2)C(=O)N(C2CCC(=O)NC2=O)C3)C1 (stereo partly drawn)
< 1 nM
